tested system: UniProt P62707
pKd: −log10 of the molar value.
readout type: pKd

• Nc1ncnc2c1ncn2[C@@H]1O[C@H](COP(=O)(O)OP(=O)(O)OP(=O)(O)O)[C@@H](O)[C@H]1O [ATP, adenosine triphosphate] = 6.49

* * *

tested system: dPGM R115A (Escherichia coli, UniProt P62707, R116A)
Sequence (P62707 whole entry R116A): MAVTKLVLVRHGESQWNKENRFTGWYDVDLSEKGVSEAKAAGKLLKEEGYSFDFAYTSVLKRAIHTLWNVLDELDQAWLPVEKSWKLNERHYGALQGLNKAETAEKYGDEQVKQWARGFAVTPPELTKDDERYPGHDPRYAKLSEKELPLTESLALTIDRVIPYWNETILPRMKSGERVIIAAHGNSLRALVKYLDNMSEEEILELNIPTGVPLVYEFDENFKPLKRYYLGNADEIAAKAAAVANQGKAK
assay text: ATP binding by isothermal titration calorimetry, R115A
readout type: Kd (µM)

- Nc1ncnc2c1ncn2[C@@H]1O[C@H](COP(=O)(O)OP(=O)(O)OP(=O)(O)O)[C@@H](O)[C@H]1O [ATP, adenosine triphosphate]: 7

* * *

tested system: dPGM K222A (Escherichia coli, UniProt P62707, K223A)
Sequence (P62707 whole entry K223A): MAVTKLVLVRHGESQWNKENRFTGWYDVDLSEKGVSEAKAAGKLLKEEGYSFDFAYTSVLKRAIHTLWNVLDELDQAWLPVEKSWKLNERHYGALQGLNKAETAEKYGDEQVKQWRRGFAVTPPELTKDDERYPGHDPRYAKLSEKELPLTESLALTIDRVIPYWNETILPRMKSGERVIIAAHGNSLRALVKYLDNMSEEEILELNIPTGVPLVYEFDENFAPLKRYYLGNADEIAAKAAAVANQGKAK
assay text: ATP binding by isothermal titration calorimetry, K222A
readout type: Kd (nM)

- Nc1ncnc2c1ncn2[C@@H]1O[C@H](COP(=O)(O)OP(=O)(O)OP(=O)(O)O)[C@@H](O)[C@H]1O [ATP, adenosine triphosphate]: 400

* * *

tested system: E. coli cofactor-dependent phosphoglycerate mutase (dPGM) (Escherichia coli)
assay text: biochemical
Type: binding
assay setup: calculated with Eq. 6 from stability increase; ligand 1.0 mM
readout type: Kd (µM)

- Nc1ncnc2c1ncn2[C@@H]1O[C@H](COP(=O)(O)O)[C@@H](O)[C@H]1O [AMP, adenosine monophosphate]: 240

* * *

tested system: E. coli cofactor-dependent phosphoglycerate mutase (dPGM) (Escherichia coli)
assay text: biochemical
Assay type: binding
The reader will find reported Kd values listed item by item below.
readout type: Kd (nM)

* Nc1ncnc2c1ncn2[C@@H]1O[C@H](COP(=O)(O)OP(=O)(O)OP(=O)(O)O)[C@@H](O)[C@H]1O [ATP, adenosine triphosphate] | 1500
* Nc1nc2c(ncn2[C@@H]2O[C@H](COP(=O)(O)OP(=O)(O)OP(=O)(O)O)[C@@H](O)[C@H]2O)c(=O)[nH]1 [GTP, guanosine triphosphate] | 400
* Nc1ncnc2c1ncn2[C@@H]1O[C@H](COP(=O)(O)OP(=O)(O)O)[C@@H](O)[C@H]1O [ADP, adenosine diphosphate] | 18000
* O=P(O)(O)OP(=O)(O)O [Pyrophosphate] | 1200

* * *

tested system: E. coli cofactor-dependent phosphoglycerate mutase (dPGM) (Escherichia coli)
assay text: biochemical
Type: binding
assay setup: ligand 1.0 mM; one global fit of all nucleotide data sets
The reader will find reported ΔGU-I values listed item by item below.
readout type: ΔGU-I

• Nc1ncnc2c1ncn2[C@@H]1O[C@H](COP(=O)(O)O)[C@@H](O)[C@H]1O [AMP, adenosine monophosphate] = 5.5 (± 0.2) kcal/mol
• Nc1ncnc2c1ncn2[C@@H]1O[C@H](COP(=O)(O)OP(=O)(O)OP(=O)(O)O)[C@@H](O)[C@H]1O [ATP, adenosine triphosphate] = 5.0 (± 0.3) kcal/mol
• Nc1ncnc2c1ncn2[C@@H]1O[C@H](CO)[C@@H](O)[C@H]1O = 5.6 (± 0.2) kcal/mol
• Nc1nc2c(ncn2[C@@H]2O[C@H](COP(=O)(O)OP(=O)(O)OP(=O)(O)O)[C@@H](O)[C@H]2O)c(=O)[nH]1 [GTP, guanosine triphosphate] = 4.3 (± 0.6) kcal/mol
• Nc1ncnc2c1ncn2[C@@H]1O[C@H](COP(=O)(O)OP(=O)(O)O)[C@@H](O)[C@H]1O [ADP, adenosine diphosphate] = 5.2 (± 0.2) kcal/mol

* * *

tested system: dPGM R9A (Escherichia coli, UniProt P62707, R10A)
Sequence (P62707 whole entry R10A): as the sequence (P62707 whole entry R116A) above, with R10A, A116R counted along it
assay text: ATP binding by isothermal titration calorimetry, R9A
readout type: Kd

• Nc1ncnc2c1ncn2[C@@H]1O[C@H](COP(=O)(O)OP(=O)(O)OP(=O)(O)O)[C@@H](O)[C@H]1O [ATP, adenosine triphosphate] = 5.5 µM

* * *

tested system: dPGM R116A (Escherichia coli, UniProt P62707, R117A)
Sequence (P62707 whole entry R117A): as the sequence (P62707 whole entry K223A) above, with R117A, A223K counted along it
assay text: ATP binding by isothermal titration calorimetry, R116A
pKd: −log10 of the molar value.
readout type: pKd

- Nc1ncnc2c1ncn2[C@@H]1O[C@H](COP(=O)(O)OP(=O)(O)OP(=O)(O)O)[C@@H](O)[C@H]1O [ATP, adenosine triphosphate]: 5.82

* * *

tested system: E. coli cofactor-dependent phosphoglycerate mutase (dPGM) (Escherichia coli, UniProt P62707)
assay text: biochemical
Type: binding
assay setup: ligand 1.0 mM
readout type: ΔΔGI-N° = ΔGI-N°(ligand) – ΔGI-N°(no ligand)

* Nc1ncnc2c1ncn2[C@@H]1O[C@H](COP(=O)(O)OP(=O)(O)O)[C@@H](O)[C@H]1O [ADP, adenosine diphosphate] | 4.8 (± 0.1) kcal/mol
* Nc1ncnc2c1ncn2[C@@H]1O[C@H](COP(=O)(O)OP(=O)(O)OP(=O)(O)O)[C@@H](O)[C@H]1O [ATP, adenosine triphosphate] | 7.7 (± 0.2) kcal/mol
* Nc1ncnc2c1ncn2[C@@H]1O[C@H](COP(=O)(O)O)[C@@H](O)[C@H]1O [AMP, adenosine monophosphate] | 1.96 (± 0.09) kcal/mol
* Nc1ncnc2c1ncn2[C@@H]1O[C@H](CO)[C@@H](O)[C@H]1O | 0.09 (± 0.07) kcal/mol
* Nc1nc2c(ncn2[C@@H]2O[C@H](COP(=O)(O)OP(=O)(O)OP(=O)(O)O)[C@@H](O)[C@H]2O)c(=O)[nH]1 [GTP, guanosine triphosphate] | 9.3 (± 0.8) kcal/mol

* * *

tested system: dPGM K99A (Escherichia coli, UniProt P62707, K100A)
assay text: ATP binding by isothermal titration calorimetry, K99A
pKd: −log10 of the molar value.
readout type: pKd

* Nc1ncnc2c1ncn2[C@@H]1O[C@H](COP(=O)(O)OP(=O)(O)OP(=O)(O)O)[C@@H](O)[C@H]1O [ATP, adenosine triphosphate] | 5.15
